Assay: Conversion of prodrug to parent in distilled water at 37 degC for 24 hrs
Type: ADME
Settings: buffer
Reported Activity values are given for each entry in this list.
Could you give me the number in %? Just the number is fine.

smiles_string: COc1cc2c(cc1OC)N(C(=O)OCc1ccc(OC(=O)N[C@@H](CCC(=O)O)C(=O)O)cc1)[C@@H](O)[C@@H]1CCCN1C2=O
unit_string: %
Activity: 7

Consider the record given below.
Request: Entry `COc1cc2c(cc1OCCCOc1cc3c(cc1OC)C(=O)N1CCC[C@H]1[C@H](O)N3C(=O)OCc1ccc(OC(=O)N[C@@H](CCC(=O)O)C(=O)O)cc1)N(C(=O)OCc1ccc(OC(=O)N[C@@H](CCC(=O)O)C(=O)O)cc1)[C@@H](O)[C@@H]1CCCN1C2=O` : reported Activity = ?
Response: 3
